Tested on: Trypanosoma cruzi
method.notes: Inhibition of Trypanosoma cruzi Amastigotes growth at the specified concentrations: 1.56 uM
Assay type: functional
Define the label as Fulfilled when Inhibition is strictly less than 90% and as Not fulfilled in all remaining cases.

INPUT: Answer whether the molecule CC(C)Oc1cccc(Cc2cnc(N)nc2N)c1 has Inhibition strictly less than 90%
OUTPUT: Fulfilled

INPUT: What about CCCOc1ccc(Cc2cnc(N)nc2N)cc1 ?
OUTPUT: Fulfilled

INPUT: What about CCCOc1cccc(Cc2cnc(N)nc2N)c1 ?
OUTPUT: Fulfilled

INPUT: What about CCCCCCCOc1cccc(Cc2c(N)nc(N)nc2CC)c1 ?
OUTPUT: Fulfilled

INPUT: What about CCCCOc1cccc(Cc2cnc(N)nc2N)c1 ?
OUTPUT: Fulfilled

INPUT: What about Nc1ncc(Cc2cccc(OCc3ccccc3)c2)c(N)n1 ?
OUTPUT: Fulfilled

INPUT: What about CCOc1cccc(Cc2cnc(N)nc2N)c1 ?
OUTPUT: Fulfilled

INPUT: What about CCCCCOc1cccc(Cc2cnc(N)nc2N)c1 ?
OUTPUT: Fulfilled

INPUT: What about CCCCCCCOc1cccc(Cc2cnc(N)nc2N)c1 ?
OUTPUT: Not fulfilled

INPUT: What about CCCCCCOc1cccc(Cc2cnc(N)nc2N)c1 ?
OUTPUT: Not fulfilled

INPUT: What about CCCCCCCOc1cccc(Cc2c(C)nc(N)nc2N)c1 ?
OUTPUT: Fulfilled

INPUT: What about CCCCCCCCOc1cccc(Cc2cnc(N)nc2N)c1 ?
OUTPUT: Not fulfilled

All figures here come from ChEMBL document CHEMBL1132445.
